measurement target: HLA A*0203 (Homo sapiens, UniProt P04439, A173T/D140Y/D185E/D98H/E277Q/G131W/G231S/I119V/I121R/I166T/I218V/L180W/L300P/L318F/N151K/N90K/P208A/P217A/Q86G/Q94H/R138H/R169H/T345S)
assay: biochemical
Format: binding
pIC50: −log10 of the molar value. Ends that are not written are not given here.
Each item that follows carries a reported pIC50.
experimental endpoint: pIC50

> print(dat)
       sequence.entry  result.value
1   KINAWIKVV [TV9p6]          7.25
2  TINAWIKGV [TV9p29]          7.82
3  TINAWIKVV [TV9p30]          6.95
4   KINAWIKGV [TV9p5]          8.00

====

measurement target: HLA A*0206 (Homo sapiens, UniProt P04439, D140Y/D185E/D98H/E176V/E277Q/F33Y/G131W/G231S/I119V/I121R/I166T/I218V/L300P/L318F/N151K/N90K/P208A/P217A/Q86G/Q94H/R138H/R169H/T345S)
assay: biochemical
Assay type: binding
Ends that are not written are not given here.
experimental endpoint: IC50 (µM)

> print(dat)
       sequence.entry  measurement.units  result.value
1   KINAWIKGV [TV9p5]                 µM         0.224
2  TINAWIKGV [TV9p29]                 µM          2.25
3   KINAWIKVV [TV9p6]                 µM          13.4
4  TINAWIKVV [TV9p30]                 µM          12.6
